For each record, write down the corresponding viability at 30 µM.
# Test system: KMS-12-PE
# protocol: Cytotoxicity against human KMS-12-PE cells assessed as cell survival at 30 uM incubated for 48 hrs by Cell Titer-Glo luminescent assay relative to control
# Type: functional
# particulars: read-out: Survival
Could you give me the number in %? Just the number is fine.

Input line: Looking for the measured viability at 30 µM of O=C1CCC2(CC(c3ccccc3Cl)=NO2)C(=O)N1 (stereo not drawn) , can you help?
Output line: 100

Input line: Looking for the measured viability at 30 µM of O=C1CCC(N2C(=O)c3ccccc3C2=O)C(=O)N1 (stereo not drawn) [THALIDOMIDE] , can you help?
Output line: 44.1

Input line: Looking for the measured viability at 30 µM of O=C1CCC2(CC(c3cccnc3)=NO2)C(=O)N1 (stereo not drawn) , can you help?
Output line: 88.9
